In this section, each of the compounds is paired with its reported IC50.
Biological target: ML1a human melatonin receptor (Homo sapiens)
Construct: expressed in transfected cells; host or cells: COS-1 cells
Sequence (P48039 whole entry): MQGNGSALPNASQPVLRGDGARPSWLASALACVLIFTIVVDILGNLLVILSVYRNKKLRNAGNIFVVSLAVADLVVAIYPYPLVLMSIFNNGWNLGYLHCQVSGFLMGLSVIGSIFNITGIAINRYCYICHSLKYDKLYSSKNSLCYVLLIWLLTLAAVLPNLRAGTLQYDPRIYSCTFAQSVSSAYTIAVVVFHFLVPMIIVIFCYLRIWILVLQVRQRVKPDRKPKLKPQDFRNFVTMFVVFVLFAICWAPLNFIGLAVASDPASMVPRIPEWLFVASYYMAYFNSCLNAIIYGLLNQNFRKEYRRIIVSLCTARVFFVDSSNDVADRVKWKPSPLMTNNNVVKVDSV
Assay: Melatonergic binding: ML1a human melatonin receptor binding (2-[125I]-iodomelatonin, COS-1 cell membranes)
Details: human ML1a in COS-1 cells; 37° C., 1 hour; read-out: In-Vitro Receptor Binding Activities ML1a (IC50)

CCCC(=O)NCc1ccccc1-c1cccc(OC)c1 [Example 7]
100 to 300 nM

*Q* Give its IC50 value. Item: CCCC(=O)NCc1cccc(-c2cccc(OC)c2)c1 [Example 10]
*A* > 300 nM

====

# pIC50 values compiled below
Molecular target: ML1a human melatonin receptor (Homo sapiens)
Construct: expressed in transfected cells; host or cells: COS-1 cells
Test: Melatonergic binding: ML1a human melatonin receptor binding (2-[125I]-iodomelatonin, COS-1 cell membranes)
Conditions: human ML1a in COS-1 cells; 37° C., 1 hour; read-out: In-Vitro Receptor Binding Activities ML1a (IC50)
pIC50: −log10 of the molar value.

COCC(=O)Nc1cccc(-c2cccc(OC)c2)c1
< 6.52
COc1cccc(-c2cccc(NC(=O)C(C)C)c2)c1
> 7.00
COc1cccc(-c2ccccc2CNC(=O)C(C)C)c1
6.52 to 7.00
COc1cccc(-c2cccc(NC(=O)C3CC3)c2)c1
> 7.00
CCNC(=O)Nc1cccc(-c2cccc(OC)c2)c1
< 6.52

*Q* Request - read-out pIC50 | tested on ML1a human melatonin receptor (Homo sapiens) | compound `CCNC(=O)NCc1ccccc1-c1cccc(OC)c1`
*A* 6.52 to 7.00

*Q* Request body: readout pIC50, system ML1a human melatonin receptor (Homo sapiens), query `CCC(=O)Nc1cccc(-c2cccc(OC)c2)c1` . Return the value.
*A* > 7.00

*Q* Please tell me: pIC50 of `COc1cccc(-c2cccc(CNC(=O)C(C)C)c2)c1` , system ML1a human melatonin receptor (Homo sapiens)?
*A* 6.52 to 7.00

*Q* I'm curious: which pIC50 was measured for `CCCC(=O)Nc1cccc(-c2cccc(OC)c2)c1` tested on ML1a human melatonin receptor (Homo sapiens)?
*A* > 7.00

*Q* Hello, I am looking for reported pIC50 with ML1a human melatonin receptor (Homo sapiens) for `CCNC(=O)NCc1cccc(-c2cccc(OC)c2)c1` . Could you help?
*A* < 6.52
